System: MeWo cells
Method: Screening test 2: doxorubicin cytotoxicity, neutral red cell viability
Assay type: cell-based
Details: Homo sapiens, dxr 2 μM, 24 hours, read-out: concentration inducing 50% of dxr cytotoxicity enhancement (EC50)
Experimental Readout: pEC50
Here pEC50 is given on a logarithmic scale as minus log10 of the concentration in mol/L.

Value lookup for pEC50; key = COc1cc(C)c(CC/C(C)=C/Cc2cc(O)ccc2O)c(C)c1C [P5, Panicein A hydroquinone] 5.30

====

The compounds listed here are annotated with their Efflux (%) of dxr.
Test Target: wild-type Patched (hPtc) expressed in yeasts (Homo sapiens)
Construct: MAP; expressed in transfected cells; host or cells: Saccharomyces cerevisiae K699
Sequence (Q13635 whole entry): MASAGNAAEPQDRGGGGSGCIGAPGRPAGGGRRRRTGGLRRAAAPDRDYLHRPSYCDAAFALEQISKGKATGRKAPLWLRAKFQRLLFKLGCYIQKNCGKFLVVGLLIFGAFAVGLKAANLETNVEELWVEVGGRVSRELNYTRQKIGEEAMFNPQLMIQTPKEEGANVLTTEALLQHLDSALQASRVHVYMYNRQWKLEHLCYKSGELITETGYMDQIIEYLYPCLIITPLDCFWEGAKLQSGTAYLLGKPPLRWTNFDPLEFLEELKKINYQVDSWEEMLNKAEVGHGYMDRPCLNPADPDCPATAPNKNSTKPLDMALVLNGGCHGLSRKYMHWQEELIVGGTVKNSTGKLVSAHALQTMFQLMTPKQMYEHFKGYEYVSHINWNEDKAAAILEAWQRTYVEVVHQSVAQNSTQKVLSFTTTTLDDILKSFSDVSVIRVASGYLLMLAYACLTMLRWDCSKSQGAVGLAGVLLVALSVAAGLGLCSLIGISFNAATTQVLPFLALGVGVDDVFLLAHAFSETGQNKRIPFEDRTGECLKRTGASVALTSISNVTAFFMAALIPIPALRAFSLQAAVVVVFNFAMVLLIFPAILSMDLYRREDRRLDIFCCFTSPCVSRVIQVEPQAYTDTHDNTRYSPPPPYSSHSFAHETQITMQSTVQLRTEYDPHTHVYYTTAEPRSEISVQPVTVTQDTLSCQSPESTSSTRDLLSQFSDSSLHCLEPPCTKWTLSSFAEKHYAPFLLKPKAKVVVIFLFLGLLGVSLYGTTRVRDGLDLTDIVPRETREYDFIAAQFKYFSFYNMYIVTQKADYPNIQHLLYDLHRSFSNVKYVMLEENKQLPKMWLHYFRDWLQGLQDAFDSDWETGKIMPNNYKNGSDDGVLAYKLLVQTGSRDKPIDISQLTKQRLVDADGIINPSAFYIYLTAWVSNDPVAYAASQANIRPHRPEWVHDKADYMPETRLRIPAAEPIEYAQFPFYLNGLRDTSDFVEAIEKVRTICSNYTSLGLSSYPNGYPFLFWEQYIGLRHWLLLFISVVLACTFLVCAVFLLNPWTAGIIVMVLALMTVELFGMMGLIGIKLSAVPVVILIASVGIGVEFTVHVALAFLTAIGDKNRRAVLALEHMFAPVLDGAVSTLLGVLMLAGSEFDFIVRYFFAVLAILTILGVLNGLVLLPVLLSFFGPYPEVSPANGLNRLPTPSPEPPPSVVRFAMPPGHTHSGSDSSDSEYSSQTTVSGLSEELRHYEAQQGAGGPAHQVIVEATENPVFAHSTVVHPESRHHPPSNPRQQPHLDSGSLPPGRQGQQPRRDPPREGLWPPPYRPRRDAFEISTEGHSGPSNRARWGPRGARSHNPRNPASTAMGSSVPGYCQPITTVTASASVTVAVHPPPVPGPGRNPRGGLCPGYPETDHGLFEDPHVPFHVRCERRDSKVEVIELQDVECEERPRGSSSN
Method: Doxorubicin efflux from yeasts (intracellular dxr fluorescence)
Format: cell-based
Details: WT-hPtc-yeasts, 10 μM paniceins, 10 min, 5 mM 2-deoxy-D-glucose
Description: A. Compound P5 inhibits doxorubicin efflux from melanoma cells MeWo and A375. Cells were grown on cover-slips, incubated for 2 hour at 37° C. with 10 μM doxorubicin and quickly rinsed with phosphate buffer (pH 7.4). […] Dxr intracellular fluorescence was visualized by epifluorescence and analyzed using Image J software on more than 30 cells of 3 different fields for each condition. […] The results were analyzed using the Student t test in which significance is attained at P<0.05 (*). […]
Numbers only here, please. The scale is %.

Before answering, review these 3 worked examples.
- Compound: "Cc1cc(O)c(C=O)c(C)c1CCC1(C)C=Cc2cc(O)ccc2O1 (stereo not shown) [P4, Panicein B2]"
  Data Value: 46
- Compound: "C/C(=C\\Cc1cc(O)ccc1O)CCc1c(C)cc(O)c(C=O)c1C [P3, Panicein B3]"
  Data Value: 46
- Compound: "C/C(=C\\Cc1cc(O)ccc1O)CCc1c(C)c(O)c(O)c(C=O)c1C [P2, Panicein C]"
  Data Value: 51

Value lookup for Efflux (%) of dxr; key = COc1cc(C)c(CC/C(C)=C/Cc2cc(O)ccc2O)c(C)c1C [P5, Panicein A hydroquinone] 40

The reported measurements were obtained from patent US10376476B2.
